- Assayed target: cloned human dopamine D3 receptors (Homo sapiens, UniProt P35462)
- Construct: expressed in transfected cells; membrane homogenate
- Sequence (P35462 whole entry): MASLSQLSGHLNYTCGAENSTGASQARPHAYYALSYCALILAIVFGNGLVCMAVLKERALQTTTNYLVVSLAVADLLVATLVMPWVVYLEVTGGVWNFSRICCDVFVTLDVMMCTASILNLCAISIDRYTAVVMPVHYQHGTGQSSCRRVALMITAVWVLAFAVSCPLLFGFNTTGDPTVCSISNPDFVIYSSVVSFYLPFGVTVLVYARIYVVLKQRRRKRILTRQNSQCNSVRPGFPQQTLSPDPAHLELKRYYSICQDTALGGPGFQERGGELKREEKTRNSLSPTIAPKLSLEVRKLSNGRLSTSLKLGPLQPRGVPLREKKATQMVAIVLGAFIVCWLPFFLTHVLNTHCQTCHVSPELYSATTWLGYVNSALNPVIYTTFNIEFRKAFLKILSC
- Assay: [N-Methyl-3H]Spiroperidol binding to cloned human dopamine D3 receptors
- Measurement setup: read-out: D3 Ki
Listing: log10 of Ki of selected molecules
Heads up, the numbers here are log10 of Ki in nM units.

Req: Please give the documented log10 of Ki of O=C(NCCCN1CCCCC1)C1(CCN2CCN(c3csc4cc(C(F)(F)F)ccc34)CC2)CC1 [compound 833475]
Resp: 1.35

Req: Please give the documented log10 of Ki of Cc1cccc(CN2CCC(NC(=O)C3CC3CN3CCC(c4noc5ccsc45)CC3)CC2)c1 (racemic) [compound 832348]
Resp: -0.33

Others:
Req: Please give the documented log10 of Ki of O=C(NCCN1CCCC1)[C@@H]1C[C@H]1CN1CCN(c2csc3cc(C(F)(F)F)ccc23)CC1 [compound 831886]
Resp: 1.23

Req: Please give the documented log10 of Ki of O=C(NCCCN1CCOCC1)[C@@H]1C[C@H]1CN1CCN(c2nn(-c3ccc(C(F)(F)F)cc3)c3ccsc23)CC1 [compound 834205]
Resp: 1.96

Req: Please give the documented log10 of Ki of O=C([C@@H]1C[C@H]1CN1CCC(c2noc3ccsc23)CC1)N1CCC(Cn2ccnc2)CC1 [compound 831957]
Resp: 1.80

Req: Please give the documented log10 of Ki of CCC1CCC(NC(=O)C2CC2CN2CCN(Cc3ccc4c(c3)OCO4)CC2)CC1 (racemic) [compound 827240]
Resp: 2.18

Req: Please give the documented log10 of Ki of O=C([C@@H]1C[C@H]1CN1CCN(c2csc3cc(C(F)(F)F)ccc23)CC1)N1CCC(n2ccnc2)CC1 [compound 833513]
Resp: 1.63

Req: Please give the documented log10 of Ki of O=C(NCCc1c[nH]cn1)[C@@H]1C[C@H]1CN1CCC(c2noc3ccsc23)CC1 [compound 831192]
Resp: 0.54

Req: Please give the documented log10 of Ki of O=C(NCCCN1CCOCC1)[C@@H]1C[C@H]1CN1CCN(c2csc3cc(C(F)(F)F)ccc23)CC1 [compound 831492]
Resp: -0.36

Req: Please give the documented log10 of Ki of O=C(Nc1ccccn1)C1CC1CN1CCC(c2noc3ccsc23)CC1 (racemic) [compound 827397]
Resp: 2.05

Req: Please give the documented log10 of Ki of COc1cccc2c(C3CCN(C[C@@H]4C[C@H]4C(=O)NCC45CC6CC(CC(C6)C4)C5)CC3)nn(C)c12 [compound 834057]
Resp: 1.95

Req: Please give the documented log10 of Ki of CN(C)CCCNC(=O)[C@@H]1C[C@H]1CN1CCN(c2csc3cc(C(F)(F)F)ccc23)CC1 [compound 831888]
Resp: 1.24

Req: Please give the documented log10 of Ki of COc1cccc2c(C3CCN(C[C@@H]4C[C@H]4C(=O)N4CCCC(Cn5ccnc5)C4)CC3)noc12 (mixture of isomers) [compound 833910]
Resp: 0.04

Req: Please give the documented log10 of Ki of O=C([C@@H]1C[C@H]1CN1CCC(c2nsc3cc(Br)ccc23)CC1)N1CCCC(Cn2ccnc2)C1 (mixture of isomers) [A002329099]
Resp: 0.31

Req: Please give the documented log10 of Ki of O=C([C@@H](O)CCN1CCC(c2noc3ccsc23)CC1)N1CCCCC1 [compound 830557]
Resp: 1.99
